% Inhibition at 1 μM Oxytocin Receptor (Table 30) overview
Target: oxytocin receptor (Rattus norvegicus)
Construct: cell membranes prepared from rat uterus; from tissue; host or cells: rat uterus membranes
Sequence (P70536 1-388): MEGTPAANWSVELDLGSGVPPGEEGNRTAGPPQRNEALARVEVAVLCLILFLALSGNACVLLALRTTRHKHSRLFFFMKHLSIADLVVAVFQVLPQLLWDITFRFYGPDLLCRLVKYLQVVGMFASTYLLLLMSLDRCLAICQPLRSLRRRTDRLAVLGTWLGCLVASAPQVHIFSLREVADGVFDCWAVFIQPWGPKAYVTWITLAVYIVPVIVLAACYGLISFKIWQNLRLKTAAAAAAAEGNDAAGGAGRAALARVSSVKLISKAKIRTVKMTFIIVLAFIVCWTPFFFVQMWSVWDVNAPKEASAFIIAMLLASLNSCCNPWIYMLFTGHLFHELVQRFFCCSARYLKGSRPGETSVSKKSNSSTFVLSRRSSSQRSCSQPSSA
Experiment: 3H-oxytocin binding inhibition, rat uterus cell membranes
Settings: 1 μM; rat uterus membranes; Re-complexed
Description: The screening of metallopeptides for binding to oxytocin receptor was done using cell membranes prepared from rat uterus. […] Non-specific binding was determined by addition of 10^−6 M oxytocin instead of the test compound. […] After addition of the scintillation cocktail, the vials were capped and gently shaken for 12 hours to dissolve the radioactivity contained in the filters. The vials were then read for tritium counts in a scintillation counter. […]
Ends that are not written are not given here.
measured.parameter: % Inhibition at 1 μM Oxytocin Receptor (Table 30) (%)

substance	test.result
Ala-Tyr-Ile-Gln-Asn-Ala-Pro-Leu-Gly-Cys-NH2 (AYIQNAPLGC-NH2; not fully specified (bridges); printed as Ala-Tyr-Ile-Gln-Asn-Ala-Pro-Leu-Gly-Cys-NH2; also: oxorhenium(V) N3S1 metal chelate (Re=O)) [SEQ ID NO:149]	6
Ala-Tyr-Ile-Gln-Asn-Ala-Ala-Leu-Cys-Gly-NH2 (AYIQNAALCG-NH2; not fully specified (bridges); printed as Ala-Tyr-Ile-Gln-Asn-Ala-Ala-Leu-Cys-Gly-NH2; also: oxorhenium(V) N3S1 metal chelate (Re=O)) [SEQ ID NO:151]	0
Ala-Tyr-Ile-Gln-Asn-Ala-Ala-Leu-Gly-Cys-NH2 (AYIQNAALGC-NH2; not fully specified (bridges); printed as Ala-Tyr-Ile-Gln-Asn-Ala-Ala-Leu-Gly-Cys-NH2; also: oxorhenium(V) N3S1 metal chelate (Re=O)) [SEQ ID NO:150]	0
Ala-Tyr-Ile-Gln-Asn-Ala-Cys-Pro-Leu-Gly-NH2 (AYIQNACPLG-NH2; not fully specified (bridges); printed as Ala-Tyr-Ile-Gln-Asn-Ala-Cys-Pro-Leu-Gly-NH2; also: oxorhenium(V) N3S1 metal chelate (Re=O)) [SEQ ID NO:153]	2

###

Target: vasopressin-1 receptor (Rattus norvegicus, UniProt P30560)
Construct: cell membranes prepared from rat liver; from tissue; host or cells: rat liver membranes
Sequence (P30560 whole entry): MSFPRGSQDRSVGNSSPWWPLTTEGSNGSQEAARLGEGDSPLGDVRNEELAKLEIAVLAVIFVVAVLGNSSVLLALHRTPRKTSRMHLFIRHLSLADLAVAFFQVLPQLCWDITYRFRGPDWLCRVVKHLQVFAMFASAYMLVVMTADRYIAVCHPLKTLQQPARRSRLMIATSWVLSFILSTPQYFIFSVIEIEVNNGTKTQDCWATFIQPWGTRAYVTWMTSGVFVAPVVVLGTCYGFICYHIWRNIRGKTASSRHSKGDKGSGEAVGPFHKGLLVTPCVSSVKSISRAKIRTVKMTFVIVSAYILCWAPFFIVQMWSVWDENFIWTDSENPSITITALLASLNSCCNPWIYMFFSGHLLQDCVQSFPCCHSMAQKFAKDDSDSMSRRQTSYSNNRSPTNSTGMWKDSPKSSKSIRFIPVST
Experiment: 3H-vasopressin-1 antagonist binding inhibition, rat liver cell membranes
Conditions: Re-complexed
Ends that are not written are not given here.
measured.parameter: % Inhibition at 1 μM Vasopressin-1 Receptor (Table 30) (%)

substance	test.result
Ala-Tyr-Ile-Cys-Gln-Asn-Ala-Pro-Leu-Gly-NH2 (AYICQNAPLG-NH2; not fully specified (bridges); printed as Ala-Tyr-Ile-Cys-Gln-Asn-Ala-Pro-Leu-Gly-NH2; also: oxorhenium(V) N3S1 metal chelate (Re=O)) [SEQ ID NO:157]	0
Ala-Tyr-Ile-Gln-Asn-Ala-Ala-Leu-Cys-Gly-NH2 (AYIQNAALCG-NH2; not fully specified (bridges); printed as Ala-Tyr-Ile-Gln-Asn-Ala-Ala-Leu-Cys-Gly-NH2; also: oxorhenium(V) N3S1 metal chelate (Re=O)) [SEQ ID NO:151]	0
Ala-Tyr-Ile-Gln-Asn-Cys-Ala-Pro-Leu-Gly-NH2 (AYIQNCAPLG-NH2; not fully specified (bridges); printed as Ala-Tyr-Ile-Gln-Asn-Cys-Ala-Pro-Leu-Gly-NH2; also: oxorhenium(V) N3S1 metal chelate (Re=O)) [SEQ ID NO:155]	0
